# test_system: TC-PTP (Homo sapiens, UniProt P17706)
# Sequence (P17706 whole entry): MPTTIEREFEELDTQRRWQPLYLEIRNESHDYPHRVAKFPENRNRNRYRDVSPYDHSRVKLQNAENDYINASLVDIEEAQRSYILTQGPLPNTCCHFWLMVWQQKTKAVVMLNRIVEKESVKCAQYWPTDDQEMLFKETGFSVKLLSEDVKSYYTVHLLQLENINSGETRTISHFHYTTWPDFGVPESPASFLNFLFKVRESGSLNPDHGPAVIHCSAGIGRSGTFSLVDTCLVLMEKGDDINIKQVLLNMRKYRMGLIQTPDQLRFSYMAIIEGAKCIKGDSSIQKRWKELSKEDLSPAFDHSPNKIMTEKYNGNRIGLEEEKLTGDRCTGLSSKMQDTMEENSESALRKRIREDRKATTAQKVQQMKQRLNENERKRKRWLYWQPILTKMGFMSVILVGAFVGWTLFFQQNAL
pIC50: −log10 of the molar value.
readout_label: pIC50

Qu. Record request: pIC50 value, item CCc1oc2cc(S(=O)(=O)Nc3ccc(S(N)(=O)=O)cc3)ccc2c1C(=O)c1cc(Br)c(O)c(Br)c1
Ans. ~3.89

The reported numbers originate from patent US6784205B2.
